Record type: IC50 measurement. Applies to: UniProtKB P55156

chem-smiles: CCOC(=O)C(COC(=O)Oc1c(F)cc(NC(=O)c2ccc(C)cc2-c2ccc(C(F)(F)F)cc2)c(C(=O)N(C)C)c1F)(C(=O)OCC)c1cccs1
IC50: < 10 nM
--
chem-smiles: CCN(C)C(=O)C(CCCC(=O)Oc1c(F)cc(NC(=O)c2ccccc2-c2ccc(C(F)(F)F)cc2)c(C(=O)N(C)C)c1F)(C(=O)N(C)CC)c1ccccc1
IC50: 100 to 1000 nM
--
chem-smiles: CCOC(=O)C(COC(=O)Oc1cc(C(=O)N(C)C)c(NC(=O)c2ccccc2-c2ccc(C(F)(F)F)cc2)cc1Cl)(C(=O)OCC)c1ccccc1
IC50: < 10 nM
--
chem-smiles: CCOC(=O)C(COC(=O)Cc1cccc(NC(=O)c2ccccc2-c2ccc(C(F)(F)F)cc2)c1OC(C)=O)(C(=O)OCC)c1ccccc1
IC50: 10 to 100 nM
--
chem-smiles: CCOC(=O)C(COC(=O)Oc1ccc(NC(=O)c2ccc(C(F)(F)F)nc2-c2ccc(C(F)(F)F)cc2)c(C(=O)N(C)C)c1)(C(=O)OCC)c1ccccc1
IC50: < 10 nM
--
chem-smiles: CCOC(=O)C(COC(=O)Oc1c(F)cc(NC(=O)c2ccccc2-c2ccc(C(F)(F)F)cc2)c(C(=O)N(C)CC(=O)OC)c1F)(C(=O)OCC)c1cccs1
IC50: 10 to 100 nM

Note: attention shifts to another entry.
Recorded IC50 for CCNC(=O)C(COCC(=O)Oc1ccc(NC(=O)c2ccccc2-c2ccc(C(F)(F)F)cc2)c(C(=O)N(C)C)c1)(C(=O)NCC)c1ccccc1 , please?
< 10 nM

---

- target-or-test-system: Microsomal triglyceride transfer protein (MTP) from bovine liver (Bos taurus, UniProt P55156)
- Sequence (P55156 12-887): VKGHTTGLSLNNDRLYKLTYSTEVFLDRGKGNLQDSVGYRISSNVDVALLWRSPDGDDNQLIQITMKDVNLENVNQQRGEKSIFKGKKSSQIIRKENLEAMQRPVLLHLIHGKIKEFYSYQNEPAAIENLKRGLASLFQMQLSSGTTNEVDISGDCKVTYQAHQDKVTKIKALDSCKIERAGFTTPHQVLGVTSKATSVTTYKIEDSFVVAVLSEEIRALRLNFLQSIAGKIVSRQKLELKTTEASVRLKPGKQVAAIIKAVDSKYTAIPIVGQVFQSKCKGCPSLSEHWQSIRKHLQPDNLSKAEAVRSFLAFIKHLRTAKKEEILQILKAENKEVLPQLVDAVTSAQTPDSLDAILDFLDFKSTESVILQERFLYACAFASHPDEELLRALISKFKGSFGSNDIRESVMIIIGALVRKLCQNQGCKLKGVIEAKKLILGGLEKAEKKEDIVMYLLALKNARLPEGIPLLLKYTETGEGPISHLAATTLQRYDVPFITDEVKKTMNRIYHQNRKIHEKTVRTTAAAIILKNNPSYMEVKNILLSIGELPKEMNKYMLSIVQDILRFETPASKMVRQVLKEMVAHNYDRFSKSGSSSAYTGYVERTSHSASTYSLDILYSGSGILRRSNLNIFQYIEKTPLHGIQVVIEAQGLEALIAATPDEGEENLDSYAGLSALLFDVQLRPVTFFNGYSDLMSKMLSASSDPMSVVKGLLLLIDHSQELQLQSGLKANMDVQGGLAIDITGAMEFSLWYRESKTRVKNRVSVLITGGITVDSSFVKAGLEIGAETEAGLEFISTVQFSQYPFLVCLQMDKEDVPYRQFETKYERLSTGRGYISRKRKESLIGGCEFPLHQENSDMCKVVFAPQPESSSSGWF
- Sequence (P05307 21-510 partner): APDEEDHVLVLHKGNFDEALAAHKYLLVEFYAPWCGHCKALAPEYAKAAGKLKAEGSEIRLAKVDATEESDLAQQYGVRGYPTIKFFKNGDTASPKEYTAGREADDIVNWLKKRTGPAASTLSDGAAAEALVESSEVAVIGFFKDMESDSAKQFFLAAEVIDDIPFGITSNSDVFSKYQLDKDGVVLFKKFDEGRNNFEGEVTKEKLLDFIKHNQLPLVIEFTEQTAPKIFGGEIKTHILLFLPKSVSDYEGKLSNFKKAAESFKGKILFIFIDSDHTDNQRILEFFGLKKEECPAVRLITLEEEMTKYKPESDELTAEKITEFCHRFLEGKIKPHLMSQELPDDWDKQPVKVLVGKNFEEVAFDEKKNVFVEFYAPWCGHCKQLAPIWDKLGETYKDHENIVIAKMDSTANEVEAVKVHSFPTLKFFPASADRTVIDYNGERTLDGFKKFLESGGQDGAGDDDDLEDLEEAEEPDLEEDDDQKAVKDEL
pIC50: −log10 of the molar value.
observable: pIC50

I'd like to know its pIC50. The compound in question is CCOC(=O)C(CCC(=O)Oc1cc(C(=O)N(C)C)c(NC(=O)c2ccccc2-c2ccc(C(F)(F)F)cc2)cc1F)(C(=O)OCC)c1ccccc1
> 8.00

---

pIC50: −log10 of the molar value.
Recorded pIC50 values (Microsomal triglyceride transfer protein (MTP) from bovine liver (Bos taurus)) are given below.

compound: CCOC(=O)C(COC(=O)Cc1ccc(NC(=O)c2ccccc2-c2ccc(C(F)(F)F)cc2)c(OC(=O)CC)c1)(C(=O)OCC)c1ccccc1 [Example 1-2]
pIC50: > 8.00
//
compound: CCOC(=O)C(COC(=O)Oc1c(F)cc(NC(=O)c2cccc(OC)c2-c2ccc(C(F)(F)F)cc2)c(C(=O)N(C)C)c1F)(C(=O)OCC)c1cccs1 [Example 2-36]
pIC50: > 8.00

Can you share its pIC50? I mean this compound: CCN(C)C(=O)C(CCC(=O)Oc1c(F)cc(NC(=O)c2ccccc2-c2ccc(C(F)(F)F)cc2)c(C(=O)N(C)C)c1F)(C(=O)N(C)CC)c1ccccc1 [Example 3-18]
7.00 to 8.00

---

- target-or-test-system: Microsomal triglyceride transfer protein (MTP) from bovine liver (Bos taurus, UniProt P55156)
Each record here notes measured IC50.

compound: CCOC(=O)C(COC(=O)Oc1ccc(NC(=O)c2cccnc2-c2ccc(C(F)(F)F)cc2)c(C(=O)N(C)C)c1)(C(=O)OCC)c1ccccc1 [Example 2-25]
observed-measurement: < 10 nM

Entry CCOC(=O)C(COC(=O)OCc1ccc(NC(=O)c2ccccc2-c2ccc(C(F)(F)F)cc2)c(C(=O)N(C)C)c1)(C(=O)OCC)c1ccccc1 [Example 2-5] has what IC50?
< 10 nM

Likewise for CCOC(=O)C(COC(=O)Oc1ccc2c(c1)N(C(C)C)C(=O)CN2C(=O)c1ccccc1-c1ccc(C(F)(F)F)cc1)(C(=O)OCC)c1ccccc1 [Example 2-2] ?
< 10 nM

Now the compound CCOC(=O)C(COC(=O)Oc1ccc(NC(=O)c2ccc(C)nc2-c2ccc(C(F)(F)F)cc2)c(C(=O)N(C)C)c1)(C(=O)OCC)c1ccccn1 [Example 2-23]
< 10 nM

Also, CCOC(=O)C(COC(=O)Oc1ccc(N(C)C(=O)c2ccccc2-c2ccc(C(F)(F)F)cc2)c(C(=O)N(C)C)c1)(C(=O)OCC)c1ccccc1 [Example 2-17] please.
100 to 1000 nM
